Below are molecules with their IC50 as measured on Somatostatin receptor type 5 (Homo sapiens, UniProt P35346).
Sequence (P35346 whole entry): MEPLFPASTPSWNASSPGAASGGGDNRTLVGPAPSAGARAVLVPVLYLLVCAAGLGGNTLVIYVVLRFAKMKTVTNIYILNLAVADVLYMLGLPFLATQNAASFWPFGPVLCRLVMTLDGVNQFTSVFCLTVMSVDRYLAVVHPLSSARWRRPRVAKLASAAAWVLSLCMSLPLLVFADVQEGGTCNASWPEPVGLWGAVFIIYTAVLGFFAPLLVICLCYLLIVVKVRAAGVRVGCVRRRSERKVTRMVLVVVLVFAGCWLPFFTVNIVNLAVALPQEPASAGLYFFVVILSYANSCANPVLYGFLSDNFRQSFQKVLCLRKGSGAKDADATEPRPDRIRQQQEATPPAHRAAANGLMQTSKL
Positions of bridges follow the written chain, without caps; N, C: chain ends. Non-standard residues stand in square brackets, D forms with d. Residues, ends and D or L forms follow the SMILES beside them. Phe(4-CH2NHiPr) = CC(C)NCc1ccc(C[C@H](N)C(=O)O)cc1

Solved entries:
# query: IC50 | item "CC(C)NCc1ccc(C[C@@H]2NC(=O)[C@@H](N(C)C(=O)c3ccc4ccccc4c3)NC(=O)[C@H](Cc3ccccc3)NC(=O)[C@H](NC(=O)[C@@H](N)Cc3ccc(O)cc3)CSSC[C@@H](C(=O)N[C@@H](Cc3ccc4ccccc4c3)C(N)=O)NC(=O)[C@H](Cc3ccccc3)NC2=O)cc1" | system: Somatostatin receptor type 5 (Homo sapiens, UniProt P35346)
> 1000 nM

What value of IC50 on Somatostatin receptor type 5 (Homo sapiens, UniProt P35346) does CC(C)NCc1ccc(C[C@@H]2NC(=O)[C@@H](Cc3c[nH]c4ccccc34)NC(=O)[C@H](Cc3ccccc3)NC(=O)[C@H](Cc3ccccc3)NC(=O)[C@@H](N)CSSC[C@@H](C(=O)O)NC(=O)[C@H](Cc3ccccc3)NC(=O)[C@H]([C@@H](C)O)NC2=O)cc1 (H-CFF[dW][Phe(4-CH2NHiPr)]TFC-OH; disulfide 1-8) have?
> 1000 nM

Next item in the queue.
Enter reported IC50 observed with Somatostatin receptor type 5 (Homo sapiens, UniProt P35346) for "CC(C)NCc1ccc(C[C@@H]2NC(=O)[C@H](N(C)C(=O)c3ccc4ccccc4c3)NC(=O)[C@H](Cc3ccccc3)NC(=O)[C@@H](NC(=O)[C@H](N)Cc3ccc(O)cc3)CSSC[C@@H](C(=O)N[C@H](C(N)=O)[C@@H](C)O)NC(=O)[C@H](Cc3ccccc3)NC2=O)cc1"
> 1000 nM
